In this section we review reported PBM binding z-score values for a set of sequences.
System: PPARg:RXRa DBDmut IVT, anti-RXR (DBD mutation: RXRa K156A/R161A, NR concentration 270 nM, RXRa partner concentration 90 nM)
Test: PBM binding z-score (relative to random genomic background probes); higher = stronger binding; sequences stand for … in GC…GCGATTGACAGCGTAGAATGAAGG

{"seq-string": "ATCTCTAGGTAAAGATTGTTCAGTGAATGCAAAT", "PBM binding z-score": 2.3}
{"seq-string": "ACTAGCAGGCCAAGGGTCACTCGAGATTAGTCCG", "PBM binding z-score": 1.3}
{"seq-string": "TCTGCTAAGTCAACGATGGTCAGCTAATCTGCTA", "PBM binding z-score": 0.507}
{"seq-string": "ATCGAAAGGTCGTGAGGTGAGAATACAGAAAGGC", "PBM binding z-score": 0.36}
{"seq-string": "ATATGTAGGTTAGCTGGGGTCATTTAGACTAGGC", "PBM binding z-score": 6.26}
{"seq-string": "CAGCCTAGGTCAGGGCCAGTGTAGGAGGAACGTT", "PBM binding z-score": 1.13}
{"seq-string": "GCATATAGGTAATACAAAGTGAAAGTCCGATTGT", "PBM binding z-score": 4.28}
{"seq-string": "CCAGACAGGTGCAAGGTAACTCAGTCTGGTACGC", "PBM binding z-score": -0.395}
{"seq-string": "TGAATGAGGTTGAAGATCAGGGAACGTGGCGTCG", "PBM binding z-score": -0.653}
{"seq-string": "ATTCAAAGTTCATCTAGGTAACGTAAGATATGCT", "PBM binding z-score": 0.894}
{"seq-string": "TGAATGAGCTTAAAGATCAGGGAACGTGGCGTCG", "PBM binding z-score": -0.909}
{"seq-string": "TCTCGGAGGACAAGAAGGTCAGAGCTTTCCAGAG", "PBM binding z-score": 1.27}
{"seq-string": "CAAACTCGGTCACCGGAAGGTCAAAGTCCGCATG", "PBM binding z-score": 4.82}
{"seq-string": "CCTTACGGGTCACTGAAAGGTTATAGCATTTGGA", "PBM binding z-score": 2.95}
{"seq-string": "CCTAGTTGGTCAAGGTCAAACACGCTATAGGTAC", "PBM binding z-score": 2.18}
{"seq-string": "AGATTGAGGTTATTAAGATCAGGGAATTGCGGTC", "PBM binding z-score": 2.3}
{"seq-string": "CGTCCAAGTTCAAAGGTCAGTGAAGAGATGACGG", "PBM binding z-score": 0.396}
{"seq-string": "ATCTCTAGGTAACCAAGTTTAGTGAATGCCGAAC", "PBM binding z-score": 3.62}
{"seq-string": "ATATGTAGGTTAGCTGGGGACATTCAGACTAGGC", "PBM binding z-score": 6.96}
{"seq-string": "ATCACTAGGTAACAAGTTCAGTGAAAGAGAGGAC", "PBM binding z-score": 5}
{"seq-string": "CTACCAAGGTGAACAAGGTGGTTGATTACTATTC", "PBM binding z-score": 2.63}
{"seq-string": "ACAGACAGGTGAGTGAAGGTTACTCAGCTGGACG", "PBM binding z-score": 0.352}
{"seq-string": "TCGAGTAGGTTACCAATGGGGCATACAGCTTTCT", "PBM binding z-score": 3.13}
{"seq-string": "GATACAGGTTCAGCTAGAGGCCAGAGTATGGAAA", "PBM binding z-score": -0.632}
{"seq-string": "TCTAGCAGGCAAGAGGGTCACTCAAGAGGTACGG", "PBM binding z-score": 0.584}
{"seq-string": "ATCTCTAGGAAAAGTTCAGTGAAAGATCGATAGA", "PBM binding z-score": -0.273}
{"seq-string": "GCGACTGGGGCATCAGCAGGTCACCATAACTTAA", "PBM binding z-score": 4}
{"seq-string": "CAAACTAGGTCACAGAGGTCAAAGTGCGTGCGTA", "PBM binding z-score": 8.28}
{"seq-string": "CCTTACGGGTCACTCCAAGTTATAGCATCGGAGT", "PBM binding z-score": 3.33}
{"seq-string": "CGTACTGGGCCAAGGTCATTGATCAGTCAAAGCA", "PBM binding z-score": 4.15}
{"seq-string": "ACTAGCAGGCCAAGTTTGGCTCACTCAAACAAAG", "PBM binding z-score": 0.281}
{"seq-string": "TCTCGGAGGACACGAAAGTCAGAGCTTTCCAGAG", "PBM binding z-score": 1.13}
{"seq-string": "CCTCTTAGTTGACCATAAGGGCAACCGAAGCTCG", "PBM binding z-score": 0.417}
{"seq-string": "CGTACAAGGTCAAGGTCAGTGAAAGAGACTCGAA", "PBM binding z-score": 4.64}
{"seq-string": "CCGAGTAGGTTATCGGGCATTCAGGCAACGGTGA", "PBM binding z-score": 2.93}
{"seq-string": "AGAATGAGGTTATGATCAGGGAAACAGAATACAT", "PBM binding z-score": 1.69}
{"seq-string": "GAAACAGGGTCAAGGCCAGAGTACGCGTATTGAT", "PBM binding z-score": 4.14}
{"seq-string": "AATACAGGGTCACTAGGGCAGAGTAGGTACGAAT", "PBM binding z-score": 4.88}
{"seq-string": "ACATACGGGTCAACGAGGTTATAGCACGCGTATA", "PBM binding z-score": 3.32}
{"seq-string": "ATATGTAGGTTACATCCGGATCATTCAGGCTATG", "PBM binding z-score": 7.7}
{"seq-string": "TCTGGTAGATCAATAGAGGTTAAGAAAGTGCGCT", "PBM binding z-score": 1.4}
{"seq-string": "CCTTACGGGTCACTGACAGGATATAGCATTTGGA", "PBM binding z-score": 3.33}
{"seq-string": "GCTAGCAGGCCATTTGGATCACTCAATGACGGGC", "PBM binding z-score": 0.765}
{"seq-string": "CCTTACGGGTCACTGACAGGTTACAGCATTTGGA", "PBM binding z-score": 3.39}
{"seq-string": "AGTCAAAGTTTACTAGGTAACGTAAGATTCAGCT", "PBM binding z-score": 3.45}
{"seq-string": "TCTTCTAGATCAAAGGTTAAGAAAGCCGAAGCCT", "PBM binding z-score": 2.42}
{"seq-string": "CAAACTACGTCAAGAGGTCAAAGTCCGCTTCCCG", "PBM binding z-score": 1.03}
{"seq-string": "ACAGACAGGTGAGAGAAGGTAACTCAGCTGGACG", "PBM binding z-score": 0.676}
{"seq-string": "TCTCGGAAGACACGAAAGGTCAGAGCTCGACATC", "PBM binding z-score": 2}
{"seq-string": "CCTGCTAGGTAATGGTCAGCTAATCTACAGTATG", "PBM binding z-score": 1.12}
{"seq-string": "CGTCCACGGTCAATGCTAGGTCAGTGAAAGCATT", "PBM binding z-score": 0.573}
